B1: RSPH3 (parent)
chain: MTVKPAKAASLARNLAKRRRTYLG

- Variants of: B1
- assay-notes: protein stability index of a GFP-peptide fusion (GPS, HEK-293T) (PSI 1-6); higher = more stable;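 further: lentivirally expressed fusions sorted by FACS into six bins by GFP to DsRed ratio, PSI derived from sequencing read proportions per bin multiplied by bin number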
- test-parameters: c terminus: a fixed tail appended
Quick rule for you: protein stability index at 3 or higher means YES, lower means NO.

MTVKPACAASLARNLAKRRRTYLG [K7C] ... NO
MTVKPAKAASLARNAAKRRRTYLG [L15A] ... YES
MTVKPAKWASLARNLAKRRRTYLG [A8W] ... NO
MTVKPAKAASLARNLANRRRTYLG [K17N] ... NO
LTVKPAKAASLARNLAKRRRTYLG [M1L] ... YES
MTVKPAKAASLARNTAKRRRTYLG [L15T] ... YES

Prompt: Does protein stability index meet or surpass 3 for MTVKPAKAASLARNLMKRRRTYLG [A16M] ?
Response: NO

Prompt: Does protein stability index meet or surpass 3 for MTVKPAKAASLARNMAKRRRTYLG [L15M] ?
Response: NO

Prompt: Does protein stability index meet or surpass 3 for MTVKPAKAAELARNLAKRRRTYLG [S10E] ?
Response: NO

Every entry's value here was drawn from the supplement of paper PMC10567573.
